Test system: A431
Assay: filipin (cholesterol) integrated intensity within LBPA endosomes, Z-score; higher = more cholesterol in LBPA endosomes
Conditions: compound concentration in added solution (µM; 5 µl added to 20 µl cells): 10; 18 h
Structures can show the parent of a compound that is named as a salt.
Reported filipin (z-score) maps to class as: L (below -0.5), M (-0.5 to below -0.4), H (-0.4 or more)

See these solved cases before continuing.
State the band of Cc1cc(NC(=O)C2=C(O)c3ccccc3S(=O)(=O)N2C)no1 [Isoxicam]
L

// return the class label for CCOc1ccc(Cc2nccc3cc(OCC)c(OCC)cc23)cc1OCC [Ethaverine hydrochloride]
H

Please report the category associated with CN1Cc2c(N)cccc2C(c2ccccc2)C1 (centres undefined) [Nomifensine maleate] , nothing else.
M

The entry to classify is CCc1nc(N)nc(N)c1-c1ccc(Cl)cc1 [Pyrimethamine] ; which class holds it?
H

Which filipin (z-score) category applies to CN(C)CCOC(=O)COc1ccc(Cl)cc1 [Meclofenoxate hydrochloride] here?
M

# ---- query molecule ----
Where would CCOC(=O)Nc1ccc2c(c1)N(C(=O)CCN1CCOCC1)c1ccccc1S2 [Moricizine hydrochloride] land among the classes by reported filipin (z-score)?
M

###

Entries annotated with measured filipin (z-score)
Test system: A431
Assay: filipin (cholesterol) integrated intensity within LBPA endosomes, Z-score; higher = more cholesterol in LBPA endosomes
Conditions: compound concentration in added solution (µM; 5 µl added to 20 µl cells): 10; 18 h
Where a name gives a salt, the structure may show the parent alone.
Give the figure only, with no unit attached.

Which filipin (z-score) is reported for this compound? CCCc1nc2c(C)cc(-c3nc4ccccc4n3C)cc2n1Cc1ccc(-c2ccccc2C(=O)O)cc1 [Telmisartan]
-0.34

***
Item under review: CCN1CCCC1CNC(=O)c1cc(S(=O)(=O)CC)c(N)cc1OC (centres undefined) [Amisulpride] . Reported filipin (z-score)?
-0.543

Can you share its filipin (z-score)? I mean this compound: Cc1onc(-c2c(Cl)cccc2Cl)c1C(=O)N[C@@H]1C(=O)N2[C@@H]1SC(C)(C)[C@@H]2C(=O)O [Dicloxacillin sodium salt hydrate]
-0.395

filipin (z-score) lookup needed for CC(C)(Oc1ccc(Cl)cc1)C(=O)O [Clofibric acid] , thanks.
-0.514

###

System: A431
Assay: filipin (cholesterol) integrated intensity within LBPA endosomes, Z-score; higher = more cholesterol in LBPA endosomes
Settings: compound concentration in added solution (µM; 5 µl added to 20 µl cells): 10; 18 h
Where a name gives a salt, the structure may show the parent alone.
measured-metric: filipin (z-score)
Write the number on its own, no unit after it.

Need filipin (z-score), item CCN(CC)CCNC(=O)c1ccc(N)cc1 [Procainamide hydrochloride]
-0.428

I'd like to know its filipin (z-score). The compound in question is CCC(C)(CN(C)C)OC(=O)c1ccccc1 (centres undefined) [Amyleine hydrochloride]
-0.528

What measured filipin (z-score) goes with "Cc1cc2c(cc1S(N)(=O)=O)S(=O)(=O)CCC2" ?
-0.464

# filipin (z-score) lookup, item "C=C1/C(=C\C=C2/CCC[C@]3(C)[C@@H]([C@H](C)/C=C/[C@@H](O)C4CC4)CC[C@@H]23)C[C@@H](O)C[C@@H]1O"
0.659

###

Tested on: HeLa MZ
Test: whole-cell filipin (free cholesterol) integrated intensity, Z-score; higher = more cholesterol staining
Conditions: compound concentration in added solution (µM; 5 µl added to 20 µl cells): 10; 18 h
Where a name gives a salt, the structure may show the parent alone.
measured-metric: whole-cell filipin (z-score)
// keep it numeric: no unit symbol after the value

Consider the reported whole-cell filipin (z-score) for these compounds:
Recorded whole-cell filipin (z-score) of OCCN(CCO)c1nc(N2CCCCC2)c2nc(N(CCO)CCO)nc(N3CCCCC3)c2n1 [Dipyridamole] , please.
-0.536

Return reported whole-cell filipin (z-score); argument: CN(N=O)C(=O)N[C@@H](C=O)[C@@H](O)[C@H](O)[C@H](O)CO [Streptozotocin]
-0.525

Please look up its whole-cell filipin (z-score): O=C1CC2(CCCC2)CC(=O)N1CCCCN1CCN(c2ncccn2)CC1 [Buspirone hydrochloride]
0.427

Look up whole-cell filipin (z-score) for this compound: C#C[C@]1(O)CC[C@H]2[C@@H]3CCc4cc(OC)ccc4[C@H]3CC[C@@]21C [Ethynylestradiol 3-methyl ether]
0.0701

Reported whole-cell filipin (z-score) for CC(=O)Nc1ccc(OCC(O)CNC(C)C)cc1 (configuration not stated) [Practolol] : what is it?
-0.531

Sample Cc1cccc(C)c1NC(=O)CN1CCN(CCCC(c2ccc(F)cc2)c2ccc(F)cc2)CC1 [Lidoflazine] — what was its whole-cell filipin (z-score)?
0.566

More entries:
Give the measured whole-cell filipin (z-score) of OCCN1CCN(CCCN2c3ccccc3Sc3ccc(C(F)(F)F)cc32)CC1 [Fluphenazine dihydrochloride] .
0.27

For the compound COc1cc2nc(N3CCN(C(=O)C4CCCO4)CC3)nc(N)c2cc1OC (configuration not stated) [Terazosin hydrochloride] , what whole-cell filipin (z-score) is on record?
-0.357

Give its whole-cell filipin (z-score) value. Item: COc1ccc2c(c1)N(C[C@H](C)CN(C)C)c1ccccc1S2 [Methotrimeprazine maleat salt]
-0.207

For the compound shown here, CC1=C(C(=O)O)N2C(=O)[C@@H](NC(=O)[C@H](N)c3ccccc3)[C@H]2SC1 [Cephalexin monohydrate] , give the reported whole-cell filipin (z-score).
-0.482

If you can, please state the reported whole-cell filipin (z-score) value of O=S(=O)(O)c1cc(O)ccc1O [Ethamsylate] .
-0.226

Given the compound O=C(O)CCC(=O)Nc1ccc(S(=O)(=O)Nc2nccs2)cc1 [Succinylsulfathiazole] , what is its reported whole-cell filipin (z-score)?
-0.818

Quick one: whole-cell filipin (z-score) for CC[C@H](C)C(=O)O[C@H]1CCC=C2C=C[C@H](C)[C@H](CC[C@@H]3C[C@@H](O)CC(=O)O3)[C@H]21 [Mevastatin] ?
-0.345

Any idea what its whole-cell filipin (z-score) is? The compound is CC(COc1ccccc1)N(CCCl)Cc1ccccc1 (configuration not stated) [Phenoxybenzamine hydrochloride]
0.141
